experimentNotes: Dissociation constant, pKa of the compound for N34 pyridine group by dip probe absorption spectroscopy
Assay type: physicochemical
measureName: pKa
Give bare numbers.

Example cases with answers are listed next.
- testSmiles: "C[C@@H]1[C@H](CN(C)Cc2ccc(Oc3ccccc3)cc2)Oc2c(NC(=O)c3ccncc3)cccc2C(=O)N1[C@@H](C)CO"
  pKa: 2.97
- testSmiles: "C[C@H](CO)N1C(=O)c2cccc(NC(=O)c3ccncc3)c2O[C@@H](CN(C)Cc2ccc(Oc3ccccc3)cc2)[C@@H]1C"
  pKa: 2.76
- testSmiles: "C[C@H](CO)N1C(=O)c2cccc(NC(=O)c3ccncc3)c2O[C@@H](CN(C)Cc2ccc(Oc3ccccc3)cc2)[C@H]1C"
  pKa: 2.98
- testSmiles: "C[C@@H](CO)N1C(=O)c2cccc(NC(=O)c3ccncc3)c2O[C@H](CN(C)Cc2ccc(Oc3ccccc3)cc2)[C@@H]1C"
  pKa: 2.98
- testSmiles: "C[C@H](CO)N1C(=O)c2cccc(NC(=O)c3ccncc3)c2O[C@H](CN(C)Cc2ccc(Oc3ccccc3)cc2)[C@H]1C"
  pKa: 2.77

Hey, can you go through the list below and give me pKa for every item?
1. C[C@@H](CO)N1C(=O)c2cccc(NC(=O)c3ccncc3)c2O[C@@H](CN(C)Cc2ccc(Oc3ccccc3)cc2)[C@@H]1C
2. C[C@@H]1[C@@H](CN(C)Cc2ccc(Oc3ccccc3)cc2)Oc2c(NC(=O)c3ccncc3)cccc2C(=O)N1[C@@H](C)CO
3. C[C@H](CO)N1C(=O)c2cccc(NC(=O)c3ccncc3)c2O[C@H](CN(C)Cc2ccc(Oc3ccccc3)cc2)[C@@H]1C

### Response
[2.76, 2.77, 2.98]

====

experimentNotes: Efflux ratio of apparent permeability from basolateral to apical side to apical to basolateral side of human Caco2 cells
Type: ADME, cell-based
assayConditions: Caco-2
measureName: efflux ratio
Answers are plain numbers.

Solved cases below.
- testSmiles: "C[C@H](CO)N1C(=O)c2cccc(NC(=O)c3ccncc3)c2O[C@@H](CN(C)Cc2ccc(Oc3ccccc3)cc2)[C@H]1C"
  efflux ratio: 0.47
- testSmiles: "C[C@@H](CO)N1C(=O)c2cccc(NC(=O)c3ccncc3)c2O[C@@H](CN(C)Cc2ccc(Oc3ccccc3)cc2)[C@@H]1C"
  efflux ratio: 0.36
- testSmiles: "C[C@H](CO)N1C(=O)c2cccc(NC(=O)c3ccncc3)c2O[C@H](CN(C)Cc2ccc(Oc3ccccc3)cc2)[C@@H]1C"
  efflux ratio: 0.36

// each listed compound needs a value for efflux ratio
1. C[C@@H]1[C@H](CN(C)Cc2ccc(Oc3ccccc3)cc2)Oc2c(NC(=O)c3ccncc3)cccc2C(=O)N1[C@@H](C)CO
2. C[C@H](CO)N1C(=O)c2cccc(NC(=O)c3ccncc3)c2O[C@H](CN(C)Cc2ccc(Oc3ccccc3)cc2)[C@H]1C

### Response
[0.48, 0.31]

Give me efflux ratio for each of these compounds, listed below.
1. C[C@@H](CO)N1C(=O)c2cccc(NC(=O)c3ccncc3)c2O[C@H](CN(C)Cc2ccc(Oc3ccccc3)cc2)[C@@H]1C
2. C[C@@H]1[C@@H](CN(C)Cc2ccc(Oc3ccccc3)cc2)Oc2c(NC(=O)c3ccncc3)cccc2C(=O)N1[C@@H](C)CO
3. C[C@H](CO)N1C(=O)c2cccc(NC(=O)c3ccncc3)c2O[C@@H](CN(C)Cc2ccc(Oc3ccccc3)cc2)[C@@H]1C

### Response
[0.41, 0.1, 0.42]
